Source: the RNAGym collection of RNA variant scans (doi:10.1093/molbev/msab373)

Listed variants paired with reported reverse-splicing fitness
B1: Azoarcus group I ribozyme (parent)
chain: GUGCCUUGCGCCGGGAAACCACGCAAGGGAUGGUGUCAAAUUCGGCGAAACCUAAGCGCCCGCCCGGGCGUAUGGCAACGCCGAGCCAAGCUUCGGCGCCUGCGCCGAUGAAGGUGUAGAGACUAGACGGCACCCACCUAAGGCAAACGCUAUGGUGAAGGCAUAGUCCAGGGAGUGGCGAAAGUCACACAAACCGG

variants of: B1; assay: reverse-splicing fitness (ratio to wild type); higher = more active; in vitro selection; Mg2+ level not given
assay_readout: reverse-splicing fitness

[[record]]
change = "A120G A145U C150G"
experimental_value = 0.07

[[record]]
change = "A111C A120U C150A C169G U176C"
experimental_value = 0.00434

[[record]]
change = "C82U A120G A145G C150A C169G"
experimental_value = 0.0101

[[record]]
change = "A120C C150U C169A U176C"
experimental_value = 0.017

[[record]]
change = "A111G A145G C150U C169A U176C"
experimental_value = 0.0252

[[record]]
change = "A111U A120U A145U C150G"
experimental_value = 0.0604

[[record]]
change = "C82U A120C A145G C150A"
experimental_value = 0.0315

[[record]]
change = "C82A A111U A120G A145U C150U C169G U176G"
experimental_value = 0.00527

[[record]]
change = "C82A A111G C150A C169G U176G"
experimental_value = 0.00691

[[record]]
change = "C82G A111G A120G A145U C150A C169U U176G"
experimental_value = 0.00582

[[record]]
change = "C82U A145G C150U C169U U176C"
experimental_value = 0.0134

[[record]]
change = "C82A A111G A120C A145G C169U U176A"
experimental_value = 0.0149

[[record]]
change = "A111G A120G C150G C169U U176C"
experimental_value = 0.0166

[[record]]
change = "A120U A145U C150G U176G"
experimental_value = 0.018

[[record]]
change = "A111U A145G C150A C169A U176G"
experimental_value = 0.0068

[[record]]
change = "C82U A111C C150U C169A"
experimental_value = 0.00914

[[record]]
change = "C82U A111C A120C A145G U176A"
experimental_value = 0.0134

[[record]]
change = "C82A A111G A120G C150A C169U U176G"
experimental_value = 0.00838

[[record]]
change = "C82A A145C C150G C169A"
experimental_value = 0.00909

[[record]]
change = "C82G A111U A145C C150A C169U U176C"
experimental_value = 0.00987

[[record]]
change = "A111G A120G C150A C169U U176A"
experimental_value = 0.0272

[[record]]
change = "C82U A120C A145G C150G U176G"
experimental_value = 0.00605

